measurement.type: melting point

// below: answered compounds
compound: Cn1ccc(COc2nn3c(-c4ccccc4F)nnc3cc2C2CCC2)n1
melting point: 184 to 186 °C

compound: CCCC(CCC)n1c(CC)nc2c1C(=O)N(C)C(CC)N2c1ccc(Cl)cc1Cl (stereo not given)
melting point: 116 to 118 °C

compound: CCOC(=O)CC1(c2ccccc2)CCN(C(c2ccccc2)(c2ccccc2)c2ccccc2)CC1
melting point: 120 °C

Enquiry: Write down melting point measured for item CNC(=O)[C@@H](NC(=O)[C@H](CC(=O)NOCc1ccccc1)CC(C)C)C(C)(C)C
Return: 128 to 129 °C

Enquiry: Write down melting point measured for item O=C(O)CNc1cc(Cl)ccc1[N+](=O)[O-]
Return: 147 to 148 °C
